Target: Porcine gastric mucosa pepsin (Sus scrofa, UniProt P00791)
Sequence (P00791 60-385): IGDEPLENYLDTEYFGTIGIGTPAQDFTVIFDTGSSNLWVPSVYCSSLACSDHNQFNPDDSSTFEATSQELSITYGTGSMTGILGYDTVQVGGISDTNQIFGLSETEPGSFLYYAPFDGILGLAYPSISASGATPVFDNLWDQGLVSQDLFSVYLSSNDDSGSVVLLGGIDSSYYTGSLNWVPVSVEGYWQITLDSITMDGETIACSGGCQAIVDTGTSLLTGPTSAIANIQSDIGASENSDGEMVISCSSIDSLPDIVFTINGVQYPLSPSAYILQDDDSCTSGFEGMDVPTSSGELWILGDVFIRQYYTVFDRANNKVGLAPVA
Assay: Pepsin FRET assay
Assay type: biochemical
recordedMetric: IC50 (µM)
# number only, unit µM dropped from output

Reported IC50 for NC1=N[C@@]2(c3cc(NC(=O)c4ccc(F)cn4)ccc3F)COC[C@H]2CS1 [LY2886721, reference compound] : what is it?
77.4

###

Tested on: PDAPP primary cortical neurons
Experiment: PDAPP neuronal cytotoxicity
Assay type: cell-based, mouse
Conditions: read-out: EC50 for inducing cytotoxicity in PDAPP neurons; MTT
recordedMetric: EC50

Reported EC50 for COc1cnc(C(=O)Nc2ccc(F)c([C@]34CN(c5ncc(F)cn5)C[C@H]3CSC(N)=N4)c2)cn1 [LY3202626] : what is it?
> 100 µM
